Source: PubChem BioAssay

Recorded composite z-score for the following compounds
system_name: Streptavidin (Streptomyces avidinii) (UniProt P22629)
Sequence (P22629 whole entry, looked up): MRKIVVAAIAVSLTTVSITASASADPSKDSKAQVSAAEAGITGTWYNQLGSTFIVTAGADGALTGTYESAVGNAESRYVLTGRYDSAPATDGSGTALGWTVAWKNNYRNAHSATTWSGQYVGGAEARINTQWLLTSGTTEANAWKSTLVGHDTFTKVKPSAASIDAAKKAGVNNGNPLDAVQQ
method_description: streptavidin binders on small-molecule microarray, primary screen, artefact control for SMM compound annotation, biophysical, 635/667 nm fluorescence (AID 1147);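 further: signal reflects streptavidin binding to arrayed compounds as a control protein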
condition_label: streptavidin binding, higher = more signal
Write the value as a bare number.

Example cases with answers are listed next.
query: // query composite z-score value for entry C[C@@H]1NC(=O)[C@@]23C(=O)N[C@@H](Cc4ccccc4)C2[C@H](C)[C@@]2(C)O[C@H]2C3/C=C/C/C=C\CNC(=O)[C@@H]2CCCN2C1=O (some centres undefined)
result: -0.591

query: // query composite z-score value for entry COC(=O)C(CC#Cc1ccc2c(c1)[C@]1(C(=O)N2)[C@H](C(=O)N2CCN(c3ncccn3)CC2)[C@H]2C(=O)O[C@H](c3ccccc3)[C@H](c3ccccc3)N2[C@@H]1c1ccc(OCCO)cc1)C(=O)OC
result: 0.736

query: // query composite z-score value for entry C=CC[C@]1(C(=O)O)COC(c2ccc(OCCCO)cc2)=N1
result: -0.447

---
query: // query composite z-score value for entry [N-]=[N+]=NCc1ccccc1C[C@@]1(C(=O)NCc2ccccc2)N=C(c2ccc(OCCCO)cc2)O[C@@H]1c1ccccc1N=[N+]=[N-]
result: 1.2
